The following compounds were reported with Ki values on Adenosine receptor A1 (Rattus norvegicus, UniProt P25099) in different studies.
Sequence (P25099 whole entry): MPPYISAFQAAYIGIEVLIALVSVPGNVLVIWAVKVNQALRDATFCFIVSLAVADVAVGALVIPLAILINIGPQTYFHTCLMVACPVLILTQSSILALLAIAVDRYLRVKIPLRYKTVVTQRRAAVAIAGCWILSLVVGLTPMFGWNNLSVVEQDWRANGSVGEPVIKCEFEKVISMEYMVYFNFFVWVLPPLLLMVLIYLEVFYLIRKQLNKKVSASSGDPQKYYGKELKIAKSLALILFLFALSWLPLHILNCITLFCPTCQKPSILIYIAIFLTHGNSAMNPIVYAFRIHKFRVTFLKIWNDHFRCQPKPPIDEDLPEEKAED

A selection of reference data follows.
# compound, targetDesc, Ki
rows = [
    ("Cc1ccc(CN2CCCn3c2nc2c3c(=O)n(C)c(=O)n2C)cc1", "Adenosine receptor A1 (Rattus norvegicus, UniProt P25099)", "> 2500 nM"),
    ("CCCCC#Cc1nc(N)c2ncn(C3O[C@H](CNC(C)=O)[C@@H](O)[C@H]3O)c2n1 (stereo not given in full)", "Adenosine receptor A1 (Rattus norvegicus, UniProt P25099)", "> 472 nM"),
    ("Nc1nc(N2CCN(Cc3c[nH]cn3)CC2)nc2nc(-c3ccco3)nn12", "Adenosine receptor A1 (Rattus norvegicus, UniProt P25099)", "> 500 nM"),
    ("Nc1nc(N2CCN(Cc3ccc4ccccc4n3)CC2)nc2nc(-c3ccco3)nn12", "Adenosine receptor A1 (Rattus norvegicus, UniProt P25099)", "> 500 nM"),
]

Then this compound:
Supply measured Ki of CN1CC(=O)N(C)c2ncn(C)c2C1=O in your reply.
> 250000 nM
